Task for the reader: assign each of the following compounds its reported growth.
# Test system: MDA-MB-435 melanoma
# experiment: NCI-60 one-dose screen, 48 h (100 = growth as untreated, 0 = no growth, -100 = all killed)
# conditionSet: 10 µM unless noted
About 83,000 compounds went through this panel and 20% of them were active in at least one assay; those are over-represented in the sample as a whole.
Express it in %; write the number only.

query: Please report growth for the following compound: COC(=O)c1nc(-c2ccccc2)oc1S(=O)(=O)NCC(c1ccc(Cl)cc1)N1CCCCC1 (stereo unspecified)
result: 72.1

query: Please report growth for the following compound: C#CCOC(=O)C(N)CSSCC(N)C(=O)O (stereo unspecified)
result: 89.1

query: Please report growth for the following compound: C#Cc1ccc(NC(=O)Cc2ccc(/C=C/C(=O)c3nccn3C)cc2)cc1
result: 83.6

query: Please report growth for the following compound: O=c1cc(-c2nccc3c2[nH]c2ccccc23)c2cc(Cl)ccc2o1
result: 1.21

query: Please report growth for the following compound: Cc1ccc2c(n1)C[C@H](C(C)(C)O)CC[C@H]2C
result: 102

query: Please report growth for the following compound: C#CCOc1cccc(Nc2ncnc3c(NC(=O)CCl)cccc23)c1
result: 26.4

query: Please report growth for the following compound: COc1cc(/C=C2\CN(S(=O)(=O)c3ccc(C)cc3)C/C(=C\c3cc(CN4CCCC4)c(O)c(OC)c3)C2=O)cc(CN2CCCC2)c1O
result: -76.8

query: Please report growth for the following compound: N#C/C(Sc1nc2sc3c(c2c(=O)n1Cc1ccccc1)CCCC3)=C1/SC=C(c2ccc(Cl)cc2)N1c1ccccc1
result: 109

query: Please report growth for the following compound: COc1ccccc1-c1nc2ccc3[nH]ncc3c2c2c1CCCC2
result: 64.4

query: Please report growth for the following compound: N#Cc1c(-c2ccc(F)cc2)cc(-c2cccc(Cl)c2)[nH]c1=O
result: 77.1

query: Please report growth for the following compound: C/C(=N\NC(=O)c1ccc(C(C)(C)C)cc1)c1ccc(O)cc1O
result: 27.7

query: Please report growth for the following compound: COc1cc2c(cc1-c1c(C)noc1C)ncc1nc(C3CCOCC3)n(C3CCC(OC(F)F)CC3)c12 (stereo unspecified)
result: 48.9

query: Please report growth for the following compound: CCNCCNc1c(C)c(-c2ccc(C(F)(F)F)cc2)c(C#N)c2nc3ccccc3n12
result: 65.2

query: Please report growth for the following compound: CCN1C(=O)N(CC)C2C1NN=c1s/c(=C\c3ccc(F)cc3)c(=O)n12 (stereo unspecified)
result: -38.8

query: Please report growth for the following compound: CCOC(=O)CSc1nc2sc3c(c2c(=O)n1-c1ccccc1)CCCCC3
result: 107

query: Please report growth for the following compound: CO[C@H]1CC(c2ccc[nH]2)=N[C@]12O[C@@H](C)C[C@@H]1CCCCCCCc3ccc([nH]3)[C@H]12
result: 15.2

query: Please report growth for the following compound: OC1CSSC1Cn1cnc2c(Nc3ccc(F)c(Cl)c3)ncnc21 (stereo unspecified)
result: 63.8

query: Please report growth for the following compound: COC1=C(OC)C(=O)C(CCCCCCCCCCO)=C(C)C1=O
result: -51

query: Please report growth for the following compound: Cc1ccc(C(F)(F)F)cc1N1CCN(C(=O)[C@H]2C[C@H]2c2ccc(C(F)(F)F)nc2)CC1
result: 103

query: Please report growth for the following compound: CC(=O)[C@H]1CC[C@]2(C)[C@@H]1CC[C@@H]1[C@@]3(C)C/C(=C/c4cccnc4)C(=O)C(C)(C)[C@@H]3CC[C@]12C
result: 75.1

query: Please report growth for the following compound: CCCCCCCCCCCCCC[n+]1ccc2c(C)c3c(c(C)c2c1)c1cc(O)ccc1n3CC
result: -92.6

query: Please report growth for the following compound: CCOC(=O)CC1C(CNC(=O)NC)OC(n2cnc3c(NC(=O)Nc4ccccc4)ncnc32)C1O[Si](C)(C)C(C)(C)C (stereo unspecified)
result: 53.6

query: Please report growth for the following compound: COc1cccc2cc(N(C)c3ncnc4ccccc34)ccc12
result: 16.6

query: Please report growth for the following compound: O=c1c(/C=C/c2c(O)ccc3ccccc23)nnc2sc(-c3cccc([N+](=O)[O-])c3)nn12
result: 47.5

query: Please report growth for the following compound: C=C(C)[C@@H]1CC[C@]2(COCCCNCCCN)CC[C@]3(C)[C@H](CC[C@@H]4[C@@]5(C)CC[C@H](OCCCN)C(C)(C)[C@@H]5CC[C@]43C)[C@@H]12
result: -91.2

query: Please report growth for the following compound: CCCC1Cc2cc(-n3nc(C)c4c3CC(C)(C)CC4=O)cc(NC3CCC(O)CC3)c2C(=O)N1 (stereo unspecified)
result: 26.8

query: Please report growth for the following compound: COc1cc(OCc2cccc(-c3ccc4c(c3)OCCO4)c2C)cc(OC)c1C=O
result: 52.9

query: Please report growth for the following compound: COc1cc(CNC(=O)CCCC/C=C/C(C)C)ccc1OCc1cn(-c2ccc(C(F)(F)F)cc2)nn1
result: 107

query: Please report growth for the following compound: O=c1c2cccc3c(N4CCOCC4)ccc(c32)c2nc3ccccc3n12
result: 104

query: Please report growth for the following compound: O=C(O)c1nn(-c2ccc(Cl)cc2)nc1N1CCCC1
result: 100

query: Please report growth for the following compound: O=C1/C(=C/c2ccccc2)COc2ccc(O)cc21
result: 68.4

* * *

# System: IGROV1 ovarian
# experiment: NCI-60 one-dose screen, 48 h
# conditionSet: 10 µM unless noted
This is part of a sample that, as a whole, favours compounds with a hit. Of some 83,000 tested, about 20% had one in any assay. Active and inactive are the calls of the source. The calls were made as follows: active = growth percent below 10; inactive = the rest.
Would you mind answering with one of these outcomes? TRUE for active, FALSE for inactive

query: // param item: N#C/C(Sc1nc2sc3c(c2c(=O)n1Cc1ccccc1)CCCC3)=C1/SC=C(c2ccc(Cl)cc2)N1c1ccccc1 ; yields the recorded call
result: FALSE

query: // param item: COc1ccc(/C=C2/CCc3cc4ccc(OC)cc4[o+]c32)c(O)c1 ; yields the recorded call
result: TRUE

query: // param item: Cc1ccc(S(=O)(=O)N(CCC(=O)O)c2ccccc2)cc1 ; yields the recorded call
result: FALSE

query: // param item: O=C(O)c1cc2ccccc2s1 ; yields the recorded call
result: FALSE

query: // param item: O=C(NCCN1CCOCC1)c1cncnc1Nc1ccc2c(ccn2Cc2ccccn2)c1 ; yields the recorded call
result: FALSE

query: // param item: CN1/C(=C/C=C/c2n(Cc3ccc4ccccc4c3)c(Cl)c(Cl)[n+]2Cc2ccc3ccccc3c2)Oc2ccccc21 ; yields the recorded call
result: TRUE

query: // param item: CCCCCN(CCCCC)CC(O)c1c(Cl)ccc2ccccc12 (stereo unspecified) ; yields the recorded call
result: FALSE

query: // param item: C#Cc1cccc(Nc2ncnc3ccc(-c4cnc(Cl)c(NS(C)(=O)=O)c4)cc23)c1 ; yields the recorded call
result: TRUE

query: // param item: CN1CC(c2ccccc2)C(C(=O)c2ccc(Br)cc2)C12C(=O)Nc1ccccc12 (stereo unspecified) ; yields the recorded call
result: FALSE

query: // param item: CC(C)(C#N)c1cc(C(=O)Nc2cc(Nc3ncccc3-c3ncnc4nc[nH]c34)ccc2F)cc(C(F)(F)F)c1 ; yields the recorded call
result: TRUE

query: // param item: O=C(/C=C/c1ccc(Cl)cc1)c1ccc(-n2cc(CN3CCN(c4cc5c(cc4F)c(=O)c(C(=O)O)cn5C4CC4)CC3)nn2)cc1 ; yields the recorded call
result: FALSE

query: // param item: C#C[C@]1(O)CC[C@H]2[C@@H]3CC=C4c5sc(-c6cccc(C)c6)nc5CC[C@]4(C)[C@H]3CC[C@@]21C ; yields the recorded call
result: FALSE

query: // param item: CC1OC(C(=O)N2CCN(CCO)CC2)CC1COC1CCCCC1 (stereo unspecified) ; yields the recorded call
result: FALSE

query: // param item: O=c1oc2ccccc2cc1-c1nn(-c2ccccc2)cc1/C=N/Nc1nc(-c2ccccc2)c(N=Nc2ccccc2)s1 ; yields the recorded call
result: FALSE

query: // param item: COC(=O)c1cc(-c2cc(OC)c(OC)c(OC)c2)[nH]c1N/N=C/c1c(Cl)cccc1Cl ; yields the recorded call
result: TRUE

query: // param item: Cc1ccccc1NC(=O)Cn1cc(CN2CCN(c3ccnc4cc(Cl)ccc34)CC2)nn1 ; yields the recorded call
result: FALSE

query: // param item: O=c1c(Cc2ccc(F)cc2)cc(-c2ccccc2)nn1C/C(=N/O)c1ccccc1 ; yields the recorded call
result: FALSE

query: // param item: O=C(/C=C/c1ccco1)Nc1ncc(Cc2ccc(F)cc2)s1 ; yields the recorded call
result: FALSE

query: // param item: CCCCCCCCCCCCCC[n+]1ccc2c(C)c3c(c(C)c2c1)c1cc(O)ccc1n3CC ; yields the recorded call
result: TRUE

query: // param item: COc1cc2cc(Oc3ccc(NC(=O)Nc4ccc(F)c(C(F)(F)F)c4)cc3)c(C)nc2cc1OCCN1CCCCC1 ; yields the recorded call
result: FALSE

query: // param item: COC(=O)[C@@H](Cc1c[nH]c2ccccc12)NC[C@@H](O)CN1C(=O)/C(=C\c2cc(OC)c(OC)c(OC)c2)c2ccccc21 ; yields the recorded call
result: FALSE

query: // param item: CCc1ccc(Cc2cnc(NC(=O)c3cc(C)oc3C)s2)cc1 ; yields the recorded call
result: FALSE

query: // param item: CCCCCC(C)(O)C(C(=O)O)c1ccccc1 (stereo unspecified) ; yields the recorded call
result: FALSE

query: // param item: N=C(N)c1ccc(-c2ccc(-c3ccc(Cl)cc3Cl)s2)nc1 ; yields the recorded call
result: FALSE

query: // param item: Cc1ccc(C(F)(F)F)cc1N1CCN(C(=O)[C@H]2C[C@H]2c2ccc(C(F)(F)F)nc2)CC1 ; yields the recorded call
result: FALSE

query: // param item: CCN(CC)c1ccc(/C=N/NC(=O)c2ccccc2Nc2ccnc(C(F)(F)F)c2)c(O)c1 ; yields the recorded call
result: FALSE

query: // param item: COC(CCP(=O)(c1ccccc1)c1ccccc1)(C(=O)c1ccccc1)c1ccccc1 (stereo unspecified) ; yields the recorded call
result: TRUE

query: // param item: C/C(=C(\c1ccc(OCCCN(C)C)cc1)c1ccc(OC(=O)Cc2ccccc2)cc1)c1ccc(Cl)cc1 ; yields the recorded call
result: FALSE

query: // param item: CCOc1ccc(N2C(=O)CCSC2=S)cc1 ; yields the recorded call
result: FALSE

query: // param item: O=C1/C(=C/c2ccccc2)COc2ccc(O)cc21 ; yields the recorded call
result: FALSE

query: // param item: CN1C(=O)N(C)C2C1NN=c1s/c(=C\c3ccccc3F)c(=O)n12 (stereo unspecified) ; yields the recorded call
result: FALSE

query: // param item: O=C(OCC(O)(CO)C(=O)NC12CC3CC(CC(C3)C1)C2)c1ccc(Cl)cc1 (stereo unspecified) ; yields the recorded call
result: FALSE

query: // param item: COC1=C(OC)C(=O)C(CCCCCCCCCCO)=C(C)C1=O ; yields the recorded call
result: FALSE

query: // param item: COc1ccccc1-c1nc2ccc3[nH]ncc3c2c2c1CCCC2 ; yields the recorded call
result: FALSE

query: // param item: Cn1cc(-c2nc(-c3c[nH]c4ccncc34)cs2)c2cc(F)ccc21 ; yields the recorded call
result: TRUE

query: // param item: CN(C)c1ccc(Cc2cc(-c3ccccc3)nn(C/C(=N/O)c3ccccc3)c2=O)cc1 ; yields the recorded call
result: FALSE
